Reference source for all entries: PubChem BioAssay

Tested on: XIP peptide (Xip251-270)
experimentNotes: small-molecule binders of XIP peptide, primary screen, biochemical, small-molecule microarray, fluorescence 635/667 nm, 0.5 µg/mL protein (AID 1183)
conditionDescription: small-molecule microarray binding, fluorescence 635 nm; higher = more signal

- molecule: "COc1ccccc1CN1C(=O)c2ccccc2[C@@H](C(=O)NCCN2CCOCC2)[C@@H]1c1ccc(CO)cc1"
  composite z-score: 0.853
- molecule: "CC(C)N1C(=O)c2ccccc2[C@@H](C(=O)NCCCN(C)C)[C@@H]1c1ccc(CO)cc1"
  composite z-score: -0.428
- molecule: "COc1cc(CO)ccc1OC(C)=O"
  composite z-score: 0.383
- molecule: "O=C1OCCC=C[C@H]2OC34C=CCN(Cc5ccccc5)C(=O)[C@H]3N(CCCCCO)C(=O)[C@@H]4C12 (stereo not given in full)"
  composite z-score: -0.0335
- molecule: "COC(=O)[C@@]1(Cc2ccc(OC)cc2)[C@H]2c3cc(C(=O)N4CCCC4)n(CCc4c[nH]c5cc(F)ccc45)c3C[C@H]2CN1C(=O)c1ccccc1"
  composite z-score: 0.687
- molecule: "CC(C)CNC(=O)[C@@]1(c2ccc([N+](=O)[O-])cc2)CC(=O)N(CC23CC4CC(CC(C4)C2)C3)[C@@H]1c1ccc(CO)cc1"
  composite z-score: 0.796
- molecule: "COc1ccc(C#Cc2ccc3c(c2)[C@]2(C(=O)N3)[C@H](C(=O)NC[C@H](O)c3ccccc3)[C@H]3C(=O)O[C@H](c4ccccc4)[C@H](c4ccccc4)N3[C@@H]2c2ccc(OCCO)cc2)cc1"
  composite z-score: 0.715
- molecule: "O=C(CS)NCCCCCCNC(=O)[C@H]1C[C@H]2C(=O)N3CCC[C@H]3C(=O)N2[C@H]1c1cccc(OCCO)c1"
  composite z-score: 0.773
- molecule: "COc1ccc(CCNC(=O)[C@@]2(c3ccc([N+](=O)[O-])cc3)CC(=O)N(CC34CC5CC(CC(C5)C3)C4)[C@@H]2c2ccc(CO)cc2)cc1"
  composite z-score: 0.735
- molecule: "CC(C)N1C(=O)[C@@]2(c3ccc([N+](=O)[O-])cc3)CC(=O)N(CC34CC5CC(CC(C5)C3)C4)[C@@H]2c2ccc(CO)cc21"
  composite z-score: 0.52
- molecule: "O=C1N(CCS(=O)(=O)c2ccccc2)c2ccccc2C[C@@]12COC(c1ccc(OCCCO)cc1)=N2"
  composite z-score: 0.861
- molecule: "COCCOC(=O)N1C(=O)[C@@]2(c3cc(C#CCC(C(=O)OC)C(=O)OC)ccc31)[C@H](c1ccccc1OCCO)N1[C@H](c3ccccc3)[C@H](c3ccccc3)OC(=O)[C@H]1[C@@H]2C(=O)N1CCc2cc(OC)c(OC)cc2C1"
  composite z-score: 0.64
- molecule: "Cc1ccc(S[C@]2(C(=O)NCc3ccccc3)CC(=O)N(Cc3ccccc3Cl)[C@@H]2c2ccc(CO)cc2I)cc1"
  composite z-score: 0.348
- molecule: "C=C[C@H](COC(C)=O)N(Cc1ccc(OC(C)=O)c(OC)c1)S(=O)(=O)c1ccc(Br)cc1"
  composite z-score: 0.713
- molecule: "CN1CCC(CCCO)=CC1c1ccc(CN2CCCC2)cc1 (stereo not given)"
  composite z-score: 0.506
